target: C6orf145; assay: pooled miR-30 sensor sort-seq; sequence = guide strand; settings: shRNA; further: reference of the scale not given here
property.name: sensor-assay potency score (higher = more potent)
Response field accepts a number only; no unit should be typed.

These solved cases illustrate the format of a correct answer.
{"residue.codes": "TTGACTGGACTTTGAAAGCTGG", "observed.value": -0.406}
{"residue.codes": "TGGATTACTAAACATCCCCTGC", "observed.value": -0.823}
{"residue.codes": "TCGTTAGTAGACACTGAGCAGA", "observed.value": -0.734}
{"residue.codes": "TCAATAACTATTGTTTCGGTAT", "observed.value": -0.234}
{"residue.codes": "TTATCTAGTCGGCAATGCCTTC", "observed.value": -1.25}
{"residue.codes": "TATTTGCTAAACAAAATCCATT", "observed.value": -1.51}

Switching to the query record.
Need sensor-assay potency score (higher = more potent), item `TATGATCGTCTTCAGCAGCTTC` -1

These entries and their values trace back to the OligoGym collection.
